# systemName: UniProt Q9UBN7
# Sequence (Q9UBN7 whole entry): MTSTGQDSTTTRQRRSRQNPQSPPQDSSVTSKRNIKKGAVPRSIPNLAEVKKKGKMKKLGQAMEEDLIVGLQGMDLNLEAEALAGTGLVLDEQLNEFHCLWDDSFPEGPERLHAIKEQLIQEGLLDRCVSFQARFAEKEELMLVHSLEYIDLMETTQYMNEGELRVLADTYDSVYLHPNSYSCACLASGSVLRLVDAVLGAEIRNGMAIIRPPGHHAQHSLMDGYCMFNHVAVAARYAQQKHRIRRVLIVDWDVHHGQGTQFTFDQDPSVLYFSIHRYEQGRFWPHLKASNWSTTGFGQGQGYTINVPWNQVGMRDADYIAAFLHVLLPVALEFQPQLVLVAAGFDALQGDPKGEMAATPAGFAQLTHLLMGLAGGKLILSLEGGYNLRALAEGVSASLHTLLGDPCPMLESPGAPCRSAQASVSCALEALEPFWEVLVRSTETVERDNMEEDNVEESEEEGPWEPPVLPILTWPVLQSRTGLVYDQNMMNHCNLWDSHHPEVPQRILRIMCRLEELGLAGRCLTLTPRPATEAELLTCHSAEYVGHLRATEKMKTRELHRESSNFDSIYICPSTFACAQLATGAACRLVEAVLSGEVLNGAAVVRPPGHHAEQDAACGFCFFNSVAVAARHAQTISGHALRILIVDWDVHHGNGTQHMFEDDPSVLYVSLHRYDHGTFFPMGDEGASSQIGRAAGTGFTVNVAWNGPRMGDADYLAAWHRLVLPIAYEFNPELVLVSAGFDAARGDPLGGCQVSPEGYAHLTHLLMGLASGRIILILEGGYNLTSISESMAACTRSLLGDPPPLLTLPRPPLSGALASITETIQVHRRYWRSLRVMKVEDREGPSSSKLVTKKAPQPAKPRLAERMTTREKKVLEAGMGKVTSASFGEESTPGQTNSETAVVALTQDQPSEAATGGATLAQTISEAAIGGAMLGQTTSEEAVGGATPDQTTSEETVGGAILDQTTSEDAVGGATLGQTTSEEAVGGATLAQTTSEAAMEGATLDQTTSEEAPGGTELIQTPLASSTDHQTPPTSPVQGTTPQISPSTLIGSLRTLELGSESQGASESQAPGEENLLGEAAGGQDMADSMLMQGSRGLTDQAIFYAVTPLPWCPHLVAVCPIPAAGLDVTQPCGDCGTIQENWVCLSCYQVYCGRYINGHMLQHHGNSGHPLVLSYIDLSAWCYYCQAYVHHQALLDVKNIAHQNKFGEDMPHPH
# protocolSummary: HDAC6 enzymatic assay
# Assay type: biochemical
# details: read-out: Human HDAC6 IC50
pIC50: −log10 of the molar value.
readout: pIC50

Fc1cc(F)c(C2(Nc3ncc(-c4nnc(C(F)F)o4)cn3)CC2)c(F)c1 : 7.72
Fc1c(Cl)cccc1C1(Nc2ncc(-c3nnc(C(F)F)o3)cn2)CC1 : 7.77
CC(Nc1ncc(-c2nnc(C(F)(F)F)o2)cn1)c1ccccc1 (stereo not shown) : 6.41
CS(=O)(=O)NCC(Nc1ncc(-c2nnc(C(F)F)o2)cn1)c1ccc(F)cc1F (single isomer, unassigned) [103(+)] : 7.80
CS(=O)(=O)CC(Nc1ncc(-c2nnc(C(F)F)o2)cn1)c1ccc(F)cc1 (single isomer, unassigned) [161(+)] : 7.37
CS(=O)(=O)N(CC(Nc1ncc(-c2nnc(C(F)F)o2)cn1)c1ccc(Cl)cc1)CC(F)(F)F (single isomer, unassigned) [174(+)] : 6.77

1 = FC(F)c1nnc(-c2cnc(NC3(c4ccnc(Br)c4)CC3)nc2)o1
2 = CC(=O)NCC(Nc1ncc(-c2nnc(C(F)F)o2)cn1)c1ccc(F)cc1 (single isomer, unassigned) [78(−)]
Q: Select one: 1 or 2 . Criterion: greater recorded pIC50. The response must carry the label of the picked entry.
A: 1

A = O=S1(=O)CCCN1CC(Nc1ncc(-c2nnc(C(F)F)o2)cn1)c1ccc(F)cc1 (single isomer, unassigned; (+)) [120(+)]
B = CS(=O)(=O)Nc1cccc(C(Nc2ncc(-c3nnc(C(F)F)o3)cn2)c2ccc(F)cc2)c1 (stereo not shown)
Q: Thinking about recorded pIC50 values, which is higher, A or B ? The response must carry the label of the picked entry.
A: A
(A: 7.43, B: 6.89)

The reported numbers originate from patent US10357493B2.
